Reference source: ChEMBL document CHEMBL4364239

biological target: AP2-associated protein kinase 1 (Homo sapiens); test: Binding affinity to AAK1 in human HEK293/K562/placenta/HepG2 cell lysate mixture incubated for 45 mins by kinobeads based assay
Sequence (Q2M2I8 whole entry): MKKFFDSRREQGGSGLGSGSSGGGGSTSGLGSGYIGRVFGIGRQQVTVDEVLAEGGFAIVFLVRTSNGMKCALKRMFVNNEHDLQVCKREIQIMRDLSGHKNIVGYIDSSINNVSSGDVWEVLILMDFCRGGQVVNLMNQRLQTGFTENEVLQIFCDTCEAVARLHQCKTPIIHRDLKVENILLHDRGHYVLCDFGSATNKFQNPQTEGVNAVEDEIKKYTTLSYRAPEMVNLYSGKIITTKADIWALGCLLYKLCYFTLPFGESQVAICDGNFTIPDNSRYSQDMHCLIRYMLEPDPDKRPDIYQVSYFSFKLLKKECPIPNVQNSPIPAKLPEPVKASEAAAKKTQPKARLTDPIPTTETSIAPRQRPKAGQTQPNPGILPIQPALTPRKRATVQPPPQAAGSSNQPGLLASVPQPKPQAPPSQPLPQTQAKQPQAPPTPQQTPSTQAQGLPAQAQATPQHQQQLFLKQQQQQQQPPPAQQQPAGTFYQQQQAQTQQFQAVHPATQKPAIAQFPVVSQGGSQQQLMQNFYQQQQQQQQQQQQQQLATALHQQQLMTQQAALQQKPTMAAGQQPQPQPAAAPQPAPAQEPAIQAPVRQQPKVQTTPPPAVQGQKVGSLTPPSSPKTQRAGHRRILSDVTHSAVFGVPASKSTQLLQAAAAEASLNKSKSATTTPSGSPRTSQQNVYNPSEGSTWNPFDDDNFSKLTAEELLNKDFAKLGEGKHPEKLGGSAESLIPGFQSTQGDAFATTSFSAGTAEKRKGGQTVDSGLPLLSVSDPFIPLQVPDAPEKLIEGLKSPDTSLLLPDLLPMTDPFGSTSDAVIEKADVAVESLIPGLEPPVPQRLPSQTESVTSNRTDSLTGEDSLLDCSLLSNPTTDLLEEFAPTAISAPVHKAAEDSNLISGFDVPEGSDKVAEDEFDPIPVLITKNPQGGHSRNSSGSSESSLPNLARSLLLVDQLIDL
endpoint: Kd (µM)
Give the number; µM is assumed, so skip it.

Given item Cc1nn(CC(F)(F)F)cc1Nc1ncc(Br)c(NCc2ccc(S(N)(=O)=O)cc2)n1 , the value recorded as its Kd is 7.94

====

assay: physchem; settings: phosphate buffered saline, pH 7.4
endpoint: solubility kinetic at 1 h (µM)
Give the number; µM is assumed, so skip it.

Given item Cc1nn(CC(F)(F)F)cc1Nc1ncc(Br)c(NCc2ccc(S(N)(=O)=O)cc2)n1 , the value recorded as its solubility kinetic at 1 h is 119
